# merged literature set: Ki with D(3) dopamine receptor (Homo sapiens)
# Sequence (P35462 whole entry): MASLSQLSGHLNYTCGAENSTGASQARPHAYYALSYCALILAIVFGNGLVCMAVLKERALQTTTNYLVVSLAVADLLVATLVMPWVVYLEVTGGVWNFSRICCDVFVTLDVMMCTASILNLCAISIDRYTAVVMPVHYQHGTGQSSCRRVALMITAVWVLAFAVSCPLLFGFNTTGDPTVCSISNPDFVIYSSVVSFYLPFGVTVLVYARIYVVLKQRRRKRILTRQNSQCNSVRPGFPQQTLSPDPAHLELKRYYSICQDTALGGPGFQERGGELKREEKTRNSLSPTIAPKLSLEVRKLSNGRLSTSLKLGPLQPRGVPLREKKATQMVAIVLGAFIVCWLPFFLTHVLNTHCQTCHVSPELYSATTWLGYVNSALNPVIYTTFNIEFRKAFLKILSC
quantityName: Ki (nM)

Known results for compounds:
CCCN1CCO[C@@H]2c3cc(C(N)=O)ccc3CC[C@H]21: 14.8
CN1CCN(c2ccc3nc(CN4CCN(c5ccc(Cl)c(Cl)c5)CC4)cn3n2)CC1: 880
O=C(NCCCCN1CCN(c2ccccc2)CC1)c1cccnc1: 62
O=C(NCCCN1CCN(c2ccc(I)cc2)CC1)NN(Cc1ccccc1)c1ccccc1: 1300
FC(F)(F)c1cccc(N2CCN(CCCCNc3nccc4ccccc34)CC2)c1: 1

I. COc1cc2c(cc1OC)C1=NO[C@@H](CN3CCN(C/C(C)=C/c4ccc(F)cc4)CC3)[C@@H]1CO2 (stereo in doubt; form 1)
II. CC(=O)Nc1ccc(CCN2C[C@@H]3COc4ccc(C#N)cc4[C@H]3C2)cc1
For the pair I and II , which entry has the numerically smaller recorded Ki? I would appreciate it if you answered with the label of your choice. II
(II: 1 nM, I: 375 nM)

P. COc1cc(CCNC[C@H](O)c2ccc(O)c(O)c2)ccc1OCCCc1ccccc1
Q. COc1cc2c(cc1O)CN(CCCCNC(=O)c1ccc(C#N)cc1)CC2
R. COc1cccc(N2CCN(CCCCNC(=O)c3ccccn3)CC2)c1
In this exercise, place the 3 compounds in ascending sequence of their recorded Ki. Sort and list the labels as requested. Q, P, R

###

# merged literature set: Ki with UniProt:P35462
quantityName: Ki (nM)

COc1cccc2c1CC[C@@H]1[C@@H]2CCCN1CCCCNC(=O)c1ccc(-c2ccccc2)cc1: 794
COc1ccc2onc(N3CCN(CCCCNC(=O)c4ccc(N5CCOCC5)cc4)CC3)c2c1: 38
CCCN(CCc1ccsc1)C1CCc2c(O)cccc2C1 (stereo not given): 1.82

A. O=C(c1ccccc1)c1ccccc1OCCN1CCCC1
B. COc1c(Cl)cc(Cl)c(O)c1C(=O)NCCN1CCN(c2ccccc2)CC1
C. Fc1ccc2c(c1)C1CN(Cc3ccccc3)CC1CO2 (trans isomer)
D. O=Cc1cnn2ccc(-n3cc(CCN4CCN(c5cccc(Cl)c5Cl)CC4)nn3)cc12
In this exercise, place the 4 compounds in ascending sequence of their recorded Ki. Sort and list the labels as requested. C, D, B, A

I. CCN(Cc1ccc(-c2cc(S(=O)(=O)CC)ccc2OC)[nH]1)Cc1ccccc1Cl
II. COc1cccc2cc(C(=O)NCCCCN3CCN(c4cccc5nccnc45)CC3)oc12
Of I and II , which one carries the higher reported Ki? I would appreciate it if you answered with the label of your choice. II

A. O=C(NCCCCN1CCO[C@@H]2c3ccccc3OC[C@H]21)c1ccc(Cl)cc1 (racemic)
B. COc1c(C(=O)NCCN2CCN(c3ccc(Cl)c(Cl)c3)CC2)cc(Br)c2ccccc12
C. COc1ccccc1N1CCN(CCCCNC(=O)c2ccc(C(C)=O)cc2)CC1
D. COc1ccccc1N1CCN(CCCCc2cn(-c3ccc(SC)cc3)nn2)CC1
Please list these compounds in decreasing order of Ki. Sort and list the labels as requested. B, A, D, C
(B: 200 nM, A: 17.8 nM, D: 2.1 nM, C: 1 nM)

A. C=CCN1C[C@H](OC(=O)Nc2ccc(-c3ccccn3)cc2)C[C@H]1CNC(=O)c1cc(CCCF)cc(OC)c1OC
B. COc1ccccc1N1CCN(CCCNC(=O)Nc2ccccc2-c2ccc(C(C)(C)C)cc2)CC1
C. N#Cc1ccc2c(c1)CN(CC[C@H]1CC[C@H](NC(=O)/C=C/c3c[nH]c4ccccc34)CC1)CC2
D. Cc1cc(C2CCN(Cc3ccccc3)CC2)[nH]n1
E. Cc1ccn2cc(-c3ccc(OCCCN4CCN(c5cccc(Cl)c5Cl)CC4)cc3)nc2c1
In this exercise, place the 5 compounds in ascending sequence of their recorded Ki. Sort and list the labels as requested. C, E, A, B, D
(C: 3.16 nM, E: 8 nM, A: 15.8 nM, B: 70 nM, D: 3400 nM)

A. Clc1cccc(N2CCN(CCCCn3cc(-c4ccc5c(c4)Cc4ccccc4-5)nn3)CC2)c1Cl
B. c1cc2c(cc1CN[C@H]1C3C4CC5C6C4CC3C6C51)OCO2 (stereo not given in full)
Of A and B , which one carries the higher reported Ki? I would appreciate it if you answered with the label of your choice. B
